- system: T1, recombinant mouse VISTA (His-tagged) (mouse, UniProt Q9D659 33-191)
- T1 construct: also called murine VISTA; mVISTA
- T1 sequence (looked up): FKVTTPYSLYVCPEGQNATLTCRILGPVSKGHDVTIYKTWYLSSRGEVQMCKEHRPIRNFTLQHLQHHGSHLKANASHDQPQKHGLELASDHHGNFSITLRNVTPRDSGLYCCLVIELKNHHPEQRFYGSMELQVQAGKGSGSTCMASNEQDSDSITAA
- method-summary: BLI (Octet), 1:1 global fit, His-tagged mouse VISTA captured
experimental-readout: Kd (nM)
Give bare numbers, in nM.

{"binder": "anti-VISTA clone V4-C9 IgG1 (antibody, V domains shown) VH: QVQLQESGPGLVKPSDTLSLTCTVSGYSITSDYAWNWIRQTPGKGLEWIGYITYSGYVSYNPSLRSRVTISRDTSKNQFSLKLSSVTAADTAVYSCARALYYPWYFDVWGTGTTVTVSS VL: EIVLTQSPATLSLSPGERATLSCRASSSVGYIHWYQQKPGQAPRPLIYATSNRATGIPARFSGSGSGTDNTLTISSLEPEDSAVYYCQQWSSYPPITFGGGTKLEVKR", "experimental-readout": "Kd", "unit-text": "nM", "value-reported": 3.81}
{"binder": "anti-VISTA clone V4-C28 IgG1 (antibody, V domains shown) VH: QVQLQESGPGLVKPSDTLSLTCTVSGYSITSDYTWNWIRQTPGKGLEWIGHITYSGSVSYNPSLRSRVTISRDTSKNQFSLKLSSVTAADTATYSCARALYYPWYFDVWGTGTTVTVSS VL: EIVLTQSPATLSLSPGERATLSCRASSSVGYIHWYQQKPGQAPRPLIYATSYRATGIPARFSGSGSGTDNTLTISSLEPEDSAVYYCQQWSSYPPITFGGGTKLEVKR", "experimental-readout": "Kd", "unit-text": "nM", "value-reported": 0.17}
{"binder": "anti-VISTA clone V4-C1 IgG1 (antibody, V domains shown) VH: QVQLQESGPGLVKPSDTLSLTCTVSGYSITSDYAWNWIRQTPGKGLEWIGYITYSGYISYNPSLRSRVTISRDTSKNQFSLKLSSVTAADTAVYSCARALYYPWYFDVWGTGTTVTVSS VL: EIVITQSPATLSLSPGERATLSCRASSSVGYIHWYQQKPGQAPRPLIYATSNRATGIPARFSGSGSGTDNTLTISSLEPEDSAVYYCQQWSSYPPITFGGGTKLEVKR", "experimental-readout": "Kd", "unit-text": "nM", "value-reported": 60.7}

Let us examine a further case.
Endpoint output: Kd of anti-VISTA clone V4-C30 IgG1 (antibody, V domains shown) VH: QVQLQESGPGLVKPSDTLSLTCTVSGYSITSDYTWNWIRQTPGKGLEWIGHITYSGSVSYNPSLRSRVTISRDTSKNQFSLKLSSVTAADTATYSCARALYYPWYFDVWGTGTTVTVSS VL: EIVLTQSPATLSLSPGERATLSCRASSSVGYIHWYQQKPGQAPRPLIYATYYRATGIPARFSGSGSGTDNTLTISSLEPEDSAVYYCQQWSSYPPITFGGGTKLEVKR . Value?
0.005

Every entry's value here was drawn from patent US20250313631A1.
